- Assay procedure: NCI Yeast Anticancer Drug Screen. Data for the rad14 strain (AID 159);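 also: 0% = growth of vehicle-treated control cultures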
- Assay conditions: S. cerevisiae rad14 strain growth inhibition; at 11.0 µM
- Experimental: Growth inhibition of yeast strains with defined genetic alterations is measured as a screen for potential anti-cancer activity. Selected strains with alterations in DNA damage repair or cell cycle control were exposed to compounds and growth inhibition was measured relative to vehicle treated controls. The strain used in this assay is rad14
About 79,000 compounds went through this panel and 15% of them were active in at least one assay; those are over-represented in the sample as a whole. Calls of active or inactive are those of the source. Rule as the data show it: active = growth inhibition above about 70%; inactive = the rest.
Classes used: true (1) = active, false (0) = inactive

- CC(C)CCCC(C)C1CCC2C3CCC4=CC(=O)/C(=C\O)CC4(C)C3CCC12C (configuration not stated): false (0)
- Nc1ncc(-c2ccc(Br)cc2)s1: false (0)
- CCCCc1ccc(-n2c(C)c(COC(=O)NC)c(COC(=O)NC)c2C)cc1: true (1)
- Cc1ccccc1N=C(NO)c1ccccc1: false (0)
- c1ccc2c(c1)sc1c3cnccc3ccc21: false (0)
- CCN(CC)Cc1cc(Nc2c3ccccc3nc3c2[nH]c2ccccc23)cc(CN(CC)CC)c1O: false (0)
- COC(C(O)CO)C(O)C(O)C(=O)NNc1ccccc1 (configuration not stated): false (0)
- CCOc1c(N=Nc2ccccc2OC)c(C)nn1C(=S)S: false (0)
- COC(=O)Nc1cn2ccc(C(Cl)=C(Cl)Cl)cc2n1: false (0)
- CCN(CC)CCOc1cc(C)c2cc(Cc3ccccc3)ccc2n1: false (0)
- CCc1nc2ccc(NCCN(C)C)c3c(=O)c4ccccc4n1c23: false (0)
- Cc1ccc(NCCNCCO)c2c(=O)c3cc(O)ccc3sc12: false (0)

###

- Assay procedure: NCI Yeast Anticancer Drug Screen. Data for the mgt1 strain (AID 153)
- Assay conditions: S. cerevisiae mgt1 mutant growth inhibition; at 33.0 µM
Compounds without any hit were thinned out: in the full panel of roughly 79,000, 15% have a hit. Activity calls are given as the source filed them. Rule as the data show it: active = growth inhibition above about 70%; inactive = the rest.
Outcome codes: y (active), n (inactive)

• COc1ccc(C(=O)Oc2ccccc2Br)cc1 = n
• CCOC(=O)CC1(C(=O)OCC)c2[nH]c3ccccc3c2CCN1Cc1ccccc1 (centres undefined) = n
• COC(=O)NC1C(C)OC(OC2C/C=C(/C)C3C=CC4C(OC5CC(OC6CC(O)C(OC7CC(O)C(OC)C(C)O7)C(C)O6)C(O)C(C)O5)C(C)CC(C)C4C3(C)/C(O)=C3\C(=O)OC4(CC(C)C(CO)=CC4/C=C\2C)C3=O)CC1(C)[N+](=O)[O-] (centres undefined) = n
• CC1=CC(=C(c2ccc(N)cc2)c2ccc(N)cc2)C=CC1=N = n
• O=c1ccc2ccccc2c2ccccc12 = y
• CCc1nc2ccc(NCCN(C)C)c3c(=O)c4ccccc4n1c23 = n
• CCOC(=O)C#Cc1ccc([N+](=O)[O-])cc1 = n
• O=C1C=C(N2CCN(c3ccccn3)CC2)C(=O)c2c(O)ccc(O)c21 = n
• Cc1cc(S(=O)(=O)Nc2nnc3cnc4ccccc4n23)c(S)cc1Cl = n

###

- Assay procedure: NCI Yeast Anticancer Drug Screen. Data for the bub3 strain (AID 167)
- Assay conditions: S. cerevisiae bub3 mutant strain, at 5.0 µM (retest, dose inferred, filed as 0.5), hits give high values
Compounds without any hit were thinned out: in the full panel of roughly 79,000, 15% have a hit. Activity calls are given as the source filed them. Rule as the data show it: active = growth inhibition above about 70%; inactive = the rest.
Recorded endpoint: growth inhibition

• COc1ccc(C(=O)Oc2ccccc2Br)cc1 = 18% (inactive)
• Cc1cc(C)nc(NS(=O)(=O)c2ccc(Nc3c4ccccc4nc4c(C(=O)NCCO)cccc34)cc2)n1 = -17% (inactive)
• Cc1ccc2c(c1)C1(SC(C)C(=O)N1c1ccc(Cl)cc1)C(=O)N2 (stereo unspecified) = 19% (inactive)
• CCc1c[n+]([O-])c(C)cc1[N+](=O)[O-] = 8% (inactive)
• COc1cc(/C=C2\CCC/C(=C\c3ccc(O)c(OC)c3)C2=O)ccc1O = 1% (inactive)
• O=C(O)CNC(=S)Nc1ccccc1 = 6% (inactive)

###

- Assay procedure: NCI Yeast Anticancer Drug Screen. Data for the mec2-1 strain (AID 157)
- Assay conditions: S. cerevisiae mec2-1 strain, at 5.0 µM (retest, dose inferred, filed as 0.5), hits give high values
This is part of a sample that, as a whole, favours compounds with a hit. Of some 79,000 tested, about 15% had one in any assay.
Recorded endpoint: growth inhibition (%)

- COc1ccc(C(=O)Oc2ccccc2Br)cc1: -20
- CCOC1Oc2ccccc2-c2nc(N)ncc21 (stereo not given): 3
- CCO/C(C)=C(/C#N)C(N)=S: 3
- CC(=O)OC1CCC2(C)C(=CC(C3C=C4CC(OC(C)=O)CCC4(C)C4=C3C3CC5OC6(CCC(C)CO6)C(C)C5C3(C)CC4)C3=C2CCC2(C)C3CC3OC4(CCC(C)CO4)C(C)C32)C1 (stereo not given): -12
- C[C@]12CC[C@H](O)CC1=CC[C@@H]1C2CC[C@]2(C)C(=O)NC(=O)CC12 (stereo not given in full): -39

###

- Assay procedure: NCI Yeast Anticancer Drug Screen. Data for the mec2-1 strain (AID 157)
- Assay conditions: S. cerevisiae mec2-1 strain, at 3.7 µM, hits give high values
The panel holds about 79,000 compounds, 15% with a hit somewhere; the sample as a whole holds those more often.
Quick reference for growth inhibition among some compounds
Recorded endpoint: growth inhibition (%)

* NC1CCCCC1N.Nc1c(N=Nc2ccc(-c3ccc(N=Nc4cc(S(=O)(=O)[O-])c5ccccc5c4N)cc3)cc2)cc(S(=O)(=O)[O-])c2ccccc12.[OH3+].[OH3+].[Pt+4] | 9
* CC(C)=NOC(=O)Nc1ccc(Cl)cc1 | -26
* CN(C)CCCCN1c2ccccc2Sc2ccc(N=[N+]=[N-])cc21 | 31
* CSc1nc(C)c(CCOC(C)=O)c(N=P(c2ccccc2)(c2ccccc2)c2ccccc2)n1 | 8
* c1ccc2c(c1)sc1c3cnccc3ccc21 | 2
* O=C(O)c1cc2ccc(Cl)cc2c(O)c1C1=CCCCC1 | 18
* CCOC(=O)C1N=[N+](c2ccccc2)C(=O)/C1=C\n1c(=S)[nH]c2ccc([N+](=O)[O-])cc21 (stereo unspecified) | 1
* CN(C)/C=C/c1nnc([N+](=O)[O-])s1 | 0
* Nc1nc(N)c2nc(CNc3ccc(C(=O)NC(CCC(=O)O)C(=O)O)cc3F)cnc2n1 (stereo unspecified) | 26
* C#CCN(Cc1ccc2nc(N)[nH]c(=O)c2c1)c1ccc(C(=O)NC(CCC(=O)O)C(=O)O)cc1 (stereo unspecified) | -6
* Nc1ncnc2c1ncn2C1OC(CO)CC1O (stereo unspecified) | -8

###

Below, each of the compounds is paired with its reported growth inhibition value.
- Assay procedure: NCI Yeast Anticancer Drug Screen. Data for the rad52 strain (AID 147);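 also: 0% = growth of vehicle-treated control cultures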
- Assay conditions: S. cerevisiae rad52 mutant growth inhibition; at 11.0 µM; hits give high values
Compounds without any hit were thinned out: in the full panel of roughly 79,000, 15% have a hit.
Recorded endpoint: growth inhibition (%)

- CCCCCCN(CCCCCC)CC(O)c1ccnc2ccc(OC)cc12 (stereo unspecified): -5
- O=[N+]([O-])c1ccc(N/N=C/Cc2ccccc2)c([N+](=O)[O-])c1: -2
- O=C(c1ccc([N+](=O)[O-])cc1)C1N=NCC1c1ccccc1 (stereo unspecified): 6
- CC(C)=NOC(=O)Nc1ccc(Cl)cc1: -8
- O=C1Nc2ccccc2/C1=C/c1ccccc1: 7
- CCOC(=O)c1ccc(NC(=O)O/N=C(/Cl)C(C)C)cc1: 14
- COC(=O)Oc1cc(Cl)c(Cl)cc1Cl: -1
- C[CH2][Sn]([CH2]C)([O]C(=O)C(N)Cc1ccccc1)[O]C(=O)C(N)Cc1ccccc1 (stereo unspecified): 2
- CNC(=O)OCc1c(COC(=O)NC)c2n(c1C)-c1ccc(OC)cc1CCC2: -20
- C#CCN(Cc1ccc2nc(N)[nH]c(=O)c2c1)c1ccc(C(=O)NC(CCC(=O)O)C(=O)O)cc1 (stereo unspecified): 28
- CCCCCCCCCCCC1N=C(N)NC(CCCO)=C1C(=O)OC (stereo unspecified): 99

###

- Assay procedure: NCI Yeast Anticancer Drug Screen. Data for the CLN2oe strain (AID 163);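 also: 0% = growth of vehicle-only control cultures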
- Assay conditions: S. cerevisiae CLN2oe strain, at 1.2 µM, hits give high values
- Description: Growth inhibition of yeast strains with defined genetic alterations is measured as a screen for potential anti-cancer activity. Selected strains with alterations in DNA damage repair or cell cycle control were exposed to compounds and growth inhibition was measured relative to vehicle treated controls. The strain used in this assay is CLN2oe
Compounds without any hit were thinned out: in the full panel of roughly 79,000, 15% have a hit.
Recorded endpoint: growth inhibition (%)

- CC(C)(C)C1=CC(=CC=C2C=CN(CCCCCCCCCCCO)C=C2)C=C(C(C)(C)C)C1=O: -8
- CCCCCCCCCCCC(O)S(=O)(=O)O (configuration not stated): -2
- CN(C)Cc1cc(N=Nc2ccc(Cl)cc2)ccc1OC(=O)c1ccccc1: 3
- C[C](C)(C)[Ge]([O][Ge]([c]1ccccc1)[c]1ccccc1)([O][Ge]([c]1ccccc1)[c]1ccccc1)[C](C)(C)C: 4
- COc1cc(CSc2ccc(O)cc2)cc(O)c1O: 6
- Cc1ccc(CC2(OCCN(C)C)CCC(C(C)(C)C)CC2)cc1 (configuration not stated): -23
- O=C1C(Br)=C(c2ccccc2)O/C1=C/C(=O)c1ccc(Br)cc1: 1
- O=[N+]([O-])c1cccc2nc3ccccc3c(NCCCn3ccnc3[N+](=O)[O-])c12: 5
- O=C1C=C(Cl)C(=O)C(c2ccc(Cl)cc2)=C1: 31
- O=[N+]([O-])c1cccc2nc3ccccc3c(NCCC[N+]3([O-])CCCCC3)c12: -2
- COC(=O)NC1C(C)OC(OC2C/C=C(/C)C3C=CC4C(OC5CC(OC6CC(O)C(OC7CC(O)C(OC)C(C)O7)C(C)O6)C(O)C(C)O5)C(C)CC(C)C4C3(C)/C(O)=C3\C(=O)OC4(CC(C)C(CO)=CC4/C=C\2C)C3=O)CC1(C)[N+](=O)[O-] (configuration not stated): 27
- COC(=O)/C=C(/C(=O)OC)C(Cl)(Cl)Cl: -5
- Cc1cc(C(C)(C)CC(C)(C)C)ccc1O: -31
- NC1=NNC2(C(N)=N1)c1ccccc1-c1ccccc12: 9
- CNC(=O)OCc1c(COC(=O)NC)c(-c2ccc(Cl)cc2)n2c1CCC2: -21
- O=C1c2ccccc2C(=O)c2cc(CCl)ccc21: -1
- O=C(NCCCl)Sc1ccc(Cl)cc1: -1
- Cc1cc(N(CCOS(C)(=O)=O)CCOS(C)(=O)=O)ccc1C=Nc1ccc(-c2csc(-c3ccccc3)n2)c(Cl)c1: 36
- CCCCN(CCCC)CCC(O)c1cc2c(Cl)cc(Cl)cc2c2cc(C(F)(F)F)ccc12 (configuration not stated): 22
- Cc1c2cccc(Sc3ccccc3)c2c2c3c(cccc13)[S+](c1ccccc1)C2 (configuration not stated): -3
- CCOC(=O)/C(=C\c1ccc(C#N)cc1)C(C)=O: -20
- CN(C)[C@@H]1C(=O)C(C(N)=O)=C(O)[C@@]2(O)C(=O)C3=C(O)c4c(O)cccc4C[C@H]3C[C@@H]12: -7
- O=c1ccc2ccccc2c2ccccc12: 20
- COc1cc2ccnc(-c3c4ccccc4c(N)c4c(OC)c(OC)ccc34)c2cc1OC: -1
- Nc1ccc2c(c1)C(=O)c1ccc(F)cc1-2: 5
- Nc1nc2ccc(NCc3ccc(C(=O)NC(CCC(=O)O)C(=O)O)cc3)cc2c(=O)[nH]1 (configuration not stated): 10
- CCOC(=O)c1[nH]cc(C)c1-c1cccn1-c1ccc(Cl)cc1[N+](=O)[O-]: -7
- c1ccc2c(c1)sc1c3cnccc3ccc21: 4
- CC(C)(C)c1ccc(NS(=O)(=O)c2ccc(N)cc2)cc1: 4
- Cc1ccc2c3ccc4c(c3n(C)c2c1)C(=O)C=CC4=O: -5
- Cc1ccc(NC(c2ccccc2)c2ccc3cccnc3c2O)cc1 (configuration not stated): 0
- CC(=O)OC1CCC2(C)C(=CC(C3C=C4CC(OC(C)=O)CCC4(C)C4=C3C3CC5OC6(CCC(C)CO6)C(C)C5C3(C)CC4)C3=C2CCC2(C)C3CC3OC4(CCC(C)CO4)C(C)C32)C1 (configuration not stated): -3
- Cc1cccc(C(C)(C)C)c1NC(=O)C(C#N)C1=C(Cl)C(=O)c2ccccc2C1=O (configuration not stated): 4
- Cc1ccc(N=Nc2ccc(O)c(=O)cc2)cc1: -2
- Cc1ccc(S/C(=C\C(=O)O)c2ccccc2)cc1: 1
- Cc1c2ccnc(C(=O)NCCN(C)C)c2cc2c3cc(O)ccc3n(C)c12: 0
- O=C1OC(OC/C(Br)=C(\Br)COC2OC(=O)C(Cl)=C2Cl)C(Cl)=C1Cl (configuration not stated): -2
- CCCCC(CC)C(=O)[O][Sn]([CH2]CCC)([CH2]CCC)[O]C(=O)C(CC)CCCC (configuration not stated): -21
- CN(C)N=Nc1ccccc1C(=O)NC#N: 23
- COc1ccc([N+](=O)[O-])c2c(NCCCN(C)C)c3ccccc3nc12: -3
- O=[N+]([O-])c1cc(Cl)cnc1Br: -4
- C=C(Cl)COC(=O)Nc1cccc(Cl)c1: 0
